species: Rattus norvegicus; assay: In vitro antiuterotonic activity in rat oxytocic bioassay in the absence of Mg2+; assay type: functional; details: read-out: pA2 (converted)
Listing: Kb of selected compounds
Numeric answer only, unit nM assumed.

[[record]]
compound = "CCOc1ccc(CC2NC(=O)CC3(CCCCC3)SSC[C@H](C(=O)N(C)CC(=O)N[C@@H](CCCN=C(N)N)C(=O)NCC(N)=O)NC(=O)[C@H](CC(N)=O)NC(=O)[C@H](CCC(N)=O)NC(=O)[C@H]([C@@H](C)CC)NC2=O)cc1 (stereo in doubt)"
endpoint_label = "Kb"
units_symbol = "nM"
recorded_result = 5.01


Alright, here's another compound for you.
Using the record for CC[C@H](C)[C@@H]1NC(=O)C(Cc2ccccc2)NC(=O)CC2(CCCCC2)SSC[C@H](C(=O)N(C)CC(=O)N[C@@H](CCCN=C(N)N)C(=O)NCC(N)=O)NC(=O)[C@H](CC(N)=O)NC(=O)[C@H](CCC(N)=O)NC1=O (stereo in doubt) , state its measured Kb.
10

* * *

Residues, ends and D or L forms follow the SMILES beside them.
Vasopressin V2 receptor (Bos taurus) Kd data
Sequence (P48044 whole entry): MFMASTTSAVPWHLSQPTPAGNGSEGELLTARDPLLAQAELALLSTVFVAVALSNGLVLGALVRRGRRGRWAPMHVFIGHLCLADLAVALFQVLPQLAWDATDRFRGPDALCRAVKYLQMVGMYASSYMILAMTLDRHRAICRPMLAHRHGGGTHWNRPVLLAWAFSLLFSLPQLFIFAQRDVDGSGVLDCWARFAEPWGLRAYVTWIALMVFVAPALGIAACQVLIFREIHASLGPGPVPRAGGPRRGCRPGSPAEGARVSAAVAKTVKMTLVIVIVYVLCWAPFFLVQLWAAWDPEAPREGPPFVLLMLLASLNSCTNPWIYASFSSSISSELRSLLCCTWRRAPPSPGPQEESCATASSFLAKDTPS
Numeric answer only, unit µM assumed.

[[record]]
molecule = "CC[C@H](C)[C@@H]1NC(=O)[C@@H](Cc2c[nH]c3ccccc23)NC(=O)CC2(CCCCC2)SSC[C@@H](C(=O)N(C)CC(=O)N[C@@H](CCCN=C(N)N)C(=O)NCC(N)=O)NC(=O)[C@H](CC(N)=O)NC(=O)[C@H](CCC(N)=O)NC1=O (HELM PEPTIDE1{[dW].I.Q.N.C.[Sar].R.G.[am]}|CHEM1{[O=C(CC1(S[*:2])CCCCC1)[*:1]]}$PEPTIDE1,CHEM1,1:R1-1:R1|PEPTIDE1,CHEM1,5:R3-1:R2$$$V2.0)"
endpoint_label = "Kd"
recorded_result = 300


Alright, here's another molecule for you.
Fetch value of Kd on Vasopressin V2 receptor (Bos taurus) for CCOc1ccc(CC2NC(=O)CC3(CCCCC3)SSC[C@H](C(=O)N(C)CC(=O)N[C@@H](CCCN=C(N)N)C(=O)NCC(N)=O)NC(=O)[C@H](CC(N)=O)NC(=O)[C@H](CCC(N)=O)NC(=O)[C@H]([C@@H](C)CC)NC2=O)cc1 (stereo in doubt) .
0.035

* * *

organism: Rattus norvegicus; assay: In vitro antiuterotonic activity in rat oxytocic bioassay in the presence of 1 mM Mg2+; format: functional; details: read-out: pA2 (converted)
Listing: Kb of selected compounds

[[record]]
compound = "CC[C@H](C)[C@@H]1NC(=O)C(Cc2ccccc2)NC(=O)CCSSC[C@H](C(=O)N(C)CC(=O)N[C@@H](CCCN=C(N)N)C(=O)NCC(N)=O)NC(=O)[C@H](CC(N)=O)NC(=O)[C@H](CCC(N)=O)NC1=O (stereo in doubt)"
recorded_result = "10 nM"


Alright, here's another compound for you.
Using the record for CC[C@H](C)C1NC(=O)CC2(CCCCC2)SSC[C@@H](C(=O)N(C)CC(=O)N[C@@H](CCCN=C(N)N)C(=O)NCC(N)=O)NC(=O)[C@H](CC(N)=O)NC(=O)[C@H](CCC(N)=O)NC(=O)[C@H](Cc2ccccc2)NC1=O (stereo in doubt) , state its measured Kb.
100 nM

* * *

species: Rattus norvegicus; assay: In vitro antiuterotonic activity in rat oxytocic bioassay in the absence of Mg2+; assay type: functional; conditions: read-out: pA2 (converted)
ENDPOINT_LABEL: Kb (nM)
Numeric answer only, unit nM assumed.

Known results for compounds:
[[record]]
compound = "CC[C@H](C)[C@@H]1NC(=O)C(Cc2ccccc2)NC(=O)CCSSC[C@H](C(=O)N(C)CC(=O)N[C@@H](CCCN=C(N)N)C(=O)NCC(N)=O)NC(=O)[C@H](CC(N)=O)NC(=O)[C@H](CCC(N)=O)NC1=O (stereo in doubt)"
endpoint_label = "Kb"
recorded_result = 5.01

[[record]]
compound = "CC[C@H](C)[C@@H]1NC(=O)[C@@H](Cc2ccc(OC)cc2)NC(=O)CC2(CCCCC2)SSC[C@@H](C(=O)N2CCC[C@H]2C(=O)N[C@@H](CCCN)C(=O)NCC(N)=O)NC(=O)[C@H](CC(N)=O)NC(=O)[C@H](CCC(N)=O)NC1=O"
endpoint_label = "Kb"
recorded_result = 3.02

[[record]]
compound = "CCOc1ccc(CC2NC(=O)CC3(CCCCC3)SSC[C@@H](C(=O)N(C)CC(=O)N[C@@H](CCCN=C(N)N)C(=O)NCC(N)=O)NC(=O)[C@H](CC(N)=O)NC(=O)[C@H](CCC(N)=O)NC(=O)[C@H](Cc3ccccc3)NC2=O)cc1 (stereo in doubt)"
endpoint_label = "Kb"
recorded_result = 3.98


Alright, here's another compound for you.
Using the record for "CN(CC(=O)N[C@@H](CCCN=C(N)N)C(=O)NCC(N)=O)C(=O)[C@@H]1CSSC2(CCCCC2)CC(=O)N[C@@H](Cc2ccc(O)cc2)C(=O)N[C@@H](Cc2ccccc2)C(=O)N[C@@H](CCC(N)=O)C(=O)N[C@@H](CC(N)=O)C(=O)N1" , state its measured Kb.
112
